Assay: In vivo pharmacokinetics of pyrotinib in rats with or without azole pretreatment
Design: species or system Sprague-Dawley rats
Conditions: male, Sprague-Dawley, rat, plasma, po, 8 mg/kg, 8 mg/kg pyrotinib oral, after 40 mg/kg itraconazole for 7 days, n = 6, read-out: Vz/F
Experimental Readout: Vd/F (L/kg)
The response must be a number in L/kg with no trailing unit.

Which Vd/F is reported for this compound? CCOc1cc2ncc(C#N)c(Nc3ccc(OCc4ccccn4)c(Cl)c3)c2cc1NC(=O)/C=C/[C@H]1CCCN1C [pyrotinib, Pyrotinib]
1

###

Test: In vivo pharmacokinetics of pyrotinib in rats with or without azole pretreatment
Design: species or system Sprague-Dawley rats
Conditions: male, Sprague-Dawley, rat, plasma, po, 8 mg/kg, 8 mg/kg pyrotinib oral, after 40 mg/kg fluconazole for 7 days, n = 6, read-out: Vz/F
Procedure: Male Sprague-Dawley rats (180–220 g) were supplied by the Experimental Animal Center of Wenzhou Medical University. The animals were placed in a controlled environment of 20–26°C and 55 ± 15% relative humidity under a 12 h light-dark cycle. Except for the 12-h fasting period before the PK study, all rats were fed a standard rodent diet and freely consumed tap water. […]
Experimental Readout: Vd/F (L/kg)
The response must be a number in L/kg with no trailing unit.

Which Vd/F is reported for this compound? CCOc1cc2ncc(C#N)c(Nc3ccc(OCc4ccccn4)c(Cl)c3)c2cc1NC(=O)/C=C/[C@H]1CCCN1C
1.09
